tested on: rodent lifetime carcinogenesis bioassay, tumor incidence TD50; assay: carcinogenic potency in animals, long-term in vivo studies, CPDB compilation (AID 1745844); conditions: rat; strain Sprague-Dawley; females; in feed; site: any site (literature study); lesion: several types; types named in the paper; dosed 45 weeks; study length 66 weeks
Experimental readout: TD50

What value of measured TD50 is listed for `Nc1nnc(-c2ccc([N+](=O)[O-])o2)s1` ?
0.662 mg/kg/day

---

test system: rodent lifetime carcinogenesis bioassay, tumor incidence TD50; assay: carcinogenic potency in animals, long-term in vivo studies, CPDB compilation (AID 1745844); settings: rat; strain Fischer 344; males; in feed; site: ileum + jejunum; lesion: carcinoma; dosed 12 weeks; study length 103 weeks
Experimental readout: TD50 (mg/kg/day)
Numbers only; they are read as mg/kg/day.

For the compound `OCC(CO)(CBr)CBr` , what TD50 is on record?
445

---

test system: rodent lifetime carcinogenesis bioassay, tumor incidence TD50; assay: carcinogenic potency in animals, long-term in vivo studies, CPDB compilation (AID 1745844); details: rat; strain Wistar; females; in drinking water; site: mammary gland; lesion: several types; types named in the paper; dosed 104 weeks; study length 104 weeks
Experimental readout: TD50

Param readout= TD50; system= rodent lifetime carcinogenesis bioassay, tumor incidence TD50; entry= O=C1OC(O)C(C(Cl)Cl)=C1Cl (stereo unspecified) ; returns value.
13 mg/kg/day

---

test system: rodent lifetime carcinogenesis bioassay, tumor incidence TD50; assay: carcinogenic potency in animals, long-term in vivo studies, CPDB compilation (AID 1745844); settings: mouse; strain B6C3F1; males; by gavage; site: all sites; lesion: malignant lymphoma, NOS; dosed 103 weeks; study length 106 weeks
Experimental readout: TD50 (mg/kg/day)
Only the number, expressed in mg/kg/day, is required.

Under rodent lifetime carcinogenesis bioassay, tumor incidence TD50: TD50 value of `C=CCOC(=O)c1ccccc1C(=O)OCC=C` ?
816

---

system: rodent lifetime carcinogenesis bioassay, tumor incidence TD50; experiment: carcinogenic potency in animals, long-term in vivo studies, CPDB compilation (AID 1745844); settings: mouse; strain C3H (MTV+); males; in drinking water; site: lung; lesion: adenoma; dosed 72 weeks; study length 72 weeks
Experimental readout: TD50 (mg/kg/day)
Respond numerically; units are mg/kg/day and should not be typed.

Fill in the blank: the reported TD50 of `NNC(=O)c1ccncc1` is ____.
219

---

test system: rodent lifetime carcinogenesis bioassay, tumor incidence TD50; assay: carcinogenic potency in animals, long-term in vivo studies, CPDB compilation (AID 1745844); settings: mouse; strain CF-1; females; in feed; site: liver; lesion: several types; types named in the paper; dosed 128 weeks; study length 128 weeks
Experimental readout: TD50

Which TD50 is listed for `ClC1=C(Cl)[C@]2(Cl)[C@@H]3[C@@H]4C[C@@H]([C@H]5O[C@@H]45)[C@@H]3[C@@]1(Cl)C2(Cl)Cl` ?
3.11 mg/kg/day

---

tested on: rodent lifetime carcinogenesis bioassay, tumor incidence TD50; assay: carcinogenic potency in animals, long-term in vivo studies, CPDB compilation (AID 1745844); conditions: rat; strain Holtzman albino (Sprague-Dawley derived); females; in feed; site: liver; lesion: hemangioendothelial sarcoma; dosed 44 weeks; study length 60 weeks
The source made the active and inactive calls. No rule for the calls is given here.
Experimental readout: TD50

Return reported TD50; argument: `O=CNNc1nc(-c2ccc([N+](=O)[O-])o2)cs1`
428 mg/kg/day (inactive)
